These data points were gathered from patent EP1585727B1.

SYSTEM: human androgen receptor (Homo sapiens, UniProt P10275)
Construct: expressed in transfected cells; host or cells: Chinese hamster ovary (CHO) cells, cell line CHO-AR-pMMTV-LUC 1G12-A5-CA
Sequence (P10275 whole entry): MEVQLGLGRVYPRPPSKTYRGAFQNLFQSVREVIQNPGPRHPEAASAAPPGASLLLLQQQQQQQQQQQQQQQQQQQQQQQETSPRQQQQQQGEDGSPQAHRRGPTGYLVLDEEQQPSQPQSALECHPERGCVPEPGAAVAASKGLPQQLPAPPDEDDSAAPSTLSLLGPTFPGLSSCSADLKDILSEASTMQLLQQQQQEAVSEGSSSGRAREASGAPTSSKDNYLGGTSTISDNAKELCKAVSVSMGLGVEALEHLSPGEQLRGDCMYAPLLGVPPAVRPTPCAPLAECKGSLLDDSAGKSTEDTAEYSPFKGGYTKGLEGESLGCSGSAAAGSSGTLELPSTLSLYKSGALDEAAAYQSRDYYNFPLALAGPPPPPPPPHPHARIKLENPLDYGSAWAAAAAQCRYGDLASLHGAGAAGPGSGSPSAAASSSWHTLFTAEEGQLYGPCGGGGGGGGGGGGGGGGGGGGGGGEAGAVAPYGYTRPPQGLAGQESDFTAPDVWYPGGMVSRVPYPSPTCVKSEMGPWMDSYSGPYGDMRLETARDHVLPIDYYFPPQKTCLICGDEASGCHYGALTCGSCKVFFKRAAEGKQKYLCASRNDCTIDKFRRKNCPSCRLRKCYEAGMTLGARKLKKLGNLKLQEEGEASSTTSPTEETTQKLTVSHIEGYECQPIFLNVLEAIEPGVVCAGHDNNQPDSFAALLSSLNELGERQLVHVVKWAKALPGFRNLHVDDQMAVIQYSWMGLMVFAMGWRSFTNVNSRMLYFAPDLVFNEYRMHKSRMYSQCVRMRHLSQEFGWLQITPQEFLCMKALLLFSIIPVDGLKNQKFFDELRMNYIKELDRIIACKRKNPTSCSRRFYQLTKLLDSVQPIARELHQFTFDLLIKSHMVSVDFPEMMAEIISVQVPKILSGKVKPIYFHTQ
ASSAY REMARKS: Androgen receptor transactivation assay, antiandrogenic activity: inhibition of transactivation in the presence of 1 nM DHT (CHO-AR-pMMTV-LUC cells; Table 4)
Type: cell-based
ASSAY CONTEXT: read-out: ant efficacy, in the presence of 1 nM DHT; intrinsic activity relative to reference antiandrogen Hydroxyflutamide (set at 100%)
REPORTED ENDPOINT: Emax

| COMPOUND | Emax |
| --- | --- |
| O=C(NCc1ccccc1)c1ccc2c(Sc3ccccc3[N+](=O)[O-])cn(Cc3cc(F)cc(F)c3)c2c1 [Compound 43] | 20 to 50% |

Task: State, in one line, measured Emax of COc1ccc2c(Sc3ccccc3[N+](=O)[O-])cn(CC3CCCCC3)c2c1 [Compound 89]
Result: 20 to 50%

Task: Assign Emax to the following record: COc1ccc2c(Sc3ccccc3[N+](=O)[O-])cn(Cc3cccc([N+](=O)[O-])c3C)c2c1 [Compound 6]
Result: < 20%
